# measurement_conditions: pampa; pH 5.0; 30.0 min; 50.0 µM
// no strictly below 200 ×10⁻⁶ cm/s in Papp; yes otherwise

{"columns": ["molecule", "class_label"],
 "data": [
  ["Cc1ccccc1NC(=O)Nc1cccs1", "yes"],
  ["O=C(NCc1ccccc1)c1nc(S(=O)(=O)Cc2ccc(F)cc2)ncc1Cl", "yes"],
  ["O=C(NC1CCCc2c1[nH]c1c(Cl)cccc21)c1ccc2c(c1)OCO2 (stereo not given)", "no"],
  ["C[C@H]1CN(C(=O)c2nn(C)c3ccccc23)C[C@@H]1c1nc(-c2ccncc2)no1", "yes"]
]}

Test whether the molecule COC[C@@H]1CN(C(=O)c2n[nH]c3ccccc23)C[C@H]1c1nc(C)no1 records Papp of 200 ×10⁻⁶ cm/s or higher.
no

---

# measurement_conditions: pampa; pH 5.0; 30.0 min; 50.0 µM
readout_type: Papp (nm/s)
Kindly answer with a numeric value in nm/s, unit omitted.

{"columns": ["compound", "readout_number"],
 "data": [
  ["COc1ccc(-c2ccc3ncc(Nc4ccc(C(N)=O)cc4)n3n2)cc1OC", 818],
  ["CN(C(=O)CSc1nc2ccc(NC(=O)c3ccc(F)cc3)cc2s1)c1ccccc1", 9010],
  ["Oc1ccc(-c2nc(C3CC3)nc3c2CCN(Cc2ccc(F)cc2)CC3)cc1", 4210],
  ["COc1ccc2[nH]c(C[C@@H]3C[C@@H](C(C)C)[C@H](CNCc4ccccc4O)C=C3C)nc2n1", 7390]
]}

Return value of Papp for input O=C(Nc1ccc(Cl)cc1)C(NS(=O)(=O)c1cccs1)c1ccccc1 (stereo not given) , no commentary.
4430

Complete the entry with Papp for COc1ccccc1CNC(=O)CCCn1nc(C)c2c(C)n(-c3ccc(C)cc3)nc2c1=O
2370

Give Papp for the following compound: CCC(CC)c1cc([C@H]2CN3CC[C@H]2C[C@@H]3CNS(=O)(=O)c2cccs2)nc(-c2ccncc2)n1
7500

---

# measurement_conditions: pampa; pH 5.0; 30.0 min; 50.0 µM
With a cut-off of 300 ×10⁻⁶ cm/s, any Papp strictly below it is called yes (1); any Papp meeting it or above is called no (0).

Completed entries (count: 8):
{"columns": ["compound", "class_label"],
 "data": [
  ["Cn1ncnc1[C@H]1c2n[nH]c(=O)c3cc(F)cc(c23)N[C@@H]1c1ccc(F)cc1", "yes (1)"],
  ["CC1=C[C@@H](CNC(C)C)[C@H](C(C)C)C[C@H]1Cc1nnc(-c2ccncc2)o1", "yes (1)"],
  ["Clc1cccc(COc2cncc(N3CCNCC3)n2)c1", "no (0)"],
  ["COc1ccc(-n2nc(C3CCN(C(=O)c4ccccc4)CC3)[nH]c2=O)cc1", "yes (1)"],
  ["Cc1nn2c(c1-c1ccccc1-c1ccccc1)N(CC1CC1)CCC2", "no (0)"],
  ["c1cc(-c2cc(-c3ccncc3)c3cncn3c2)c2[nH]ncc2c1", "yes (1)"],
  ["COc1ccc(-n2nc(C3CCCN(C(=O)Cc4ccc(F)cc4)C3)[nH]c2=O)cc1 (stereo not given)", "no (0)"],
  ["CCN1CCN(c2ncc3c(n2)CCN(Cc2cc(Br)cs2)C3)CC1", "yes (1)"]
]}

Problem: For the compound COC(=O)[C@@H]1C[C@H](OC(C)=O)C(=O)[C@H]2[C@@]1(C)CC[C@H]1C(=O)O[C@H](c3ccoc3)C[C@]21C , is Papp under 300 ×10⁻⁶ cm/s?
no (0)

Strictly below 300 ×10⁻⁶ cm/s in Papp? COc1ccc(CN2CCc3c(c(=O)n4ncc(C(=O)N5CCN(c6ccccc6OC)CC5)c4n3C)C2)cc1
no (0)

---

# measurement_conditions: pampa; pH 5.0; 30.0 min; 50.0 µM
Please note: Papp exactly at 500 ×10⁻⁶ cm/s is N. Only values below 500 ×10⁻⁶ cm/s get Y.

Consider the following illustrative entries.
{"columns": ["compound", "class_label"],
 "data": [
  ["CCOc1cc(=O)n2c(c1C(=O)Nc1cc(OC)c(Cl)cc1OC)CCCC2", "Y"],
  ["CC(=O)c1c(C)oc2ccc(N(C(=O)Oc3ccccc3)S(=O)(=O)c3ccccc3)cc12", "N"],
  ["COc1ccc(C)cc1Nc1c2c(nc3ccccc13)CCC2", "Y"],
  ["COc1ccc(CCNC(=O)Cn2c(=O)c3cccn3c3ccc(F)cc32)cc1OC", "Y"],
  ["CN(C)CC[C@@H](c1ccc(Cl)cc1)c1ccccn1", "Y"]
]}

Determine if CCNC(=O)c1coc(COc2ccc3c(c2)C(c2ccc(F)cc2)N(C(=O)CC(C)C)CC3)n1 (stereo unspecified) shows Papp strictly lower than 500 ×10⁻⁶ cm/s.
N

Bench note: check whether O=C(NCCc1cnc[nH]1)c1ccc(-c2ncc3cnc(-c4cccc(F)c4)cn23)cc1 shows Papp below 500 ×10⁻⁶ cm/s
Y

Please determine if c1cn2cc(-c3ccc4cn[nH]c4c3)nc(Nc3ccc(N4CCOCC4)cc3)c2n1 is below 500 ×10⁻⁶ cm/s in terms of Papp.
N

Criterion: Papp strictly below 500 ×10⁻⁶ cm/s. Is it met by COc1ccc(C)cc1NS(=O)(=O)c1ccc(-c2cnc(C3CC3)o2)cc1 ?
N

Consider CN(C)C(=O)NC1CCC(CCN2CCN(c3cccc(Cl)c3Cl)CC2)CC1 (stereo unspecified) . Does its Papp lie strictly below 500 ×10⁻⁶ cm/s?
Y

Given the entry Fc1ccccc1-c1nc(NCc2ccc(-c3cccnc3)cc2)c2ccccc2n1 , would its reported Papp be below 500 ×10⁻⁶ cm/s?
N

---

# measurement_conditions: pampa; pH 5.0; 30.0 min; 50.0 µM
Mark each entry satisfied if its Papp sits below 600 ×10⁻⁶ cm/s, and not satisfied for all others.

Consider the worked cases shown below.
{"columns": ["compound", "class_label"],
 "data": [
  ["Cc1nc2nc(NC(=O)c3ccc(C(C)(C)C)cc3)[nH]n2c(=O)c1Cl", "satisfied"],
  ["O=C(NCCc1ccccn1)C1CC(=O)N(c2n[nH]c3cc(Br)ccc23)C1 (stereo not given)", "satisfied"],
  ["COc1cc2c(cc1Oc1cccc(N(C)C)c1)NC(=O)C21CCN(c2cnccn2)CC1", "not satisfied"]
]}

Is Papp strictly under 600 ×10⁻⁶ cm/s for the entry CCCCNC(=O)CN1CCN(c2ncc(NC(=O)c3ccc(Cl)cc3)cc2C(=O)O)CC1 ?
satisfied

Please indicate whether the reported Papp of COc1ccc(NC(=O)c2cc(-c3ccc[nH]3)n[nH]2)cc1OC is strictly below 600 ×10⁻⁶ cm/s.
satisfied

Given Cn1cc2c3c(cccc31)CN(C(=O)c1ccc(F)c(Cl)c1)CC2 , is recorded Papp strictly lower than 600 ×10⁻⁶ cm/s?
not satisfied

Consider C#CCOc1ccc(-c2nnc(Nc3ccc(NC(C)=O)cc3)c3ccccc23)cc1 . Does its Papp lie strictly below 600 ×10⁻⁶ cm/s?
satisfied

Strictly below 600 ×10⁻⁶ cm/s: is that where Papp of COc1ccc(CCNc2ncnc3onc(C)c23)c(OC)c1 sits?
satisfied

Field: below-cutoff. Rule: recorded Papp strictly less than 600 ×10⁻⁶ cm/s. Subject: CC1CCN(S(=O)(=O)c2ccc3c(ccc(=O)n3CC(=O)NCc3ccc(Cl)cc3)c2)CC1
not satisfied

---

# measurement_conditions: pampa; pH 5.0; 30.0 min; 50.0 µM
Below, each entry is listed alongside its reported Papp.
Only the number, expressed in ×10⁻⁶ cm/s, is required.

A selection of reference data follows.
{"columns": ["molecule", "readout_number"],
 "data": [
  ["CCc1nnc(NC(=O)c2nc(S(=O)(=O)Cc3ccc(C)cc3)ncc2Cl)s1", 711],
  ["CCOc1ccccc1C(=O)Nc1ncccc1C(=O)Nc1cccc(S(=O)(=O)C(F)(F)F)c1", 656],
  ["Cc1ccc(C(=O)Nc2ccc3oc(-c4cccnc4)nc3c2)cc1[N+](=O)[O-]", 693],
  ["COC(=O)Nc1nc2ccc(C(=O)c3ccccc3)cc2[nH]1", 455],
  ["COC(=O)c1ccc(NS(=O)(=O)c2c(C)nc3sccn3c2=O)cc1", 413],
  ["CC1=C(C(=O)Nc2nc3ccccc3s2)C(c2[nH]ncc2Cl)N=C(Nc2nc3ccccc3o2)N1 (stereo not given)", 15.6],
  ["O=C(NCCCNc1nc(Nc2cccc(CN3CCOCC3)c2)ncc1C1CC1)C1CCC1", 8.82],
  ["Cn1c(CN2CCCCC2)nc2cc(NC(=O)c3cccc(Br)c3)ccc21", 178]
]}

Turning now to a further molecule:
Answer with the recorded Papp of c1ccc(Nc2cc3c(cn2)CN(Cc2cccs2)CCN3)cc1 only.
106

---

Quick reference: Papp of the listed items.
# measurement_conditions: pampa; pH 5.0; 30.0 min; 50.0 µM

The examples below pair each entry with its known result.
{"columns": ["compound", "Papp"],
 "data": [
  ["CCN1CCCC1CNC(=O)c1cc(S(=O)(=O)CC)c(N)cc1OC (stereo unspecified)", "6.63 ×10⁻⁶ cm/s"],
  ["O=C(NCC1CCN(Cc2cccc(Cl)c2)CC1)Nc1ccc(F)c(Cl)c1", "638 ×10⁻⁶ cm/s"],
  ["Cn1nnnc1Sc1ncnc2scc(-c3ccccc3F)c12", "451 ×10⁻⁶ cm/s"],
  ["Cc1cc(-c2ccc(C)c(S(=O)(=O)NCC3CCN(Cc4ccc(F)cc4)CC3)c2)on1", "486 ×10⁻⁶ cm/s"],
  ["O=C(CCCN1CCC(n2c(=O)[nH]c3ccccc32)CC1)c1ccc(F)cc1", "98.2 ×10⁻⁶ cm/s"]
]}

Determine from records and report Papp for N#Cc1ccc(-c2ccc(CNc3ccc(C4CCNCC4)cc3)o2)cc1
236 ×10⁻⁶ cm/s

Write down Papp measured for item Cc1nc(-c2ccccc2)cc([C@H]2CN3CC[C@H]2C[C@@H]3CNC2CCOCC2)n1
12.9 ×10⁻⁶ cm/s

Give the value of Papp reported for the following: CN(C)CCOC1=Cc2ccccc2Sc2ccc(Cl)cc21
857 ×10⁻⁶ cm/s

Return value of Papp for input COc1ccccc1Nc1cnc2ccc(-c3ccc(OC)c(OC)c3)nn12 , no commentary.
621 ×10⁻⁶ cm/s

Annotate the compound O=C(c1ccc2c(c1)OCO2)N1CCC(Cc2nc(-c3cnccn3)no2)CC1 with its measured Papp.
44 ×10⁻⁶ cm/s

Provide Papp value for the following compound: O=C(c1cc2ccccc2[nH]1)N1CCc2c(n(Cc3cccnc3)n(CCc3ccccc3)c2=O)C1
229 ×10⁻⁶ cm/s

For the compound CCCNC(=O)c1ccc2c(c1)N=C(C)c1c(C)ccc(C)c1S2 , give its measured Papp value.
> 1000 ×10⁻⁶ cm/s

Return value of Papp for input NCC(=O)Nc1cncc(-c2nn3c(=O)cc(N4CCNCC4)nc3s2)c1 , no commentary.
1.07 ×10⁻⁶ cm/s

Determine its reported Papp: Cc1ccccc1C(=O)NC1CCN(c2ccc3nnc(C4CC4)n3n2)CC1
35 ×10⁻⁶ cm/s

Indicate its recorded Papp; the compound in question is Cc1ccnc(NC(=S)N2CCN(c3ccc(N)cc3)CC2)c1
4.13 ×10⁻⁶ cm/s

# return recorded Papp for entry O=C(NCCCNc1nc(Nc2cccc(NC(=O)N3CCCC3)c2)ncc1I)c1cccs1
234 ×10⁻⁶ cm/s

Give the reported Papp for this compound. Fc1ccccc1CNCc1ccc(-c2ccnc3[nH]ccc23)cc1
266 ×10⁻⁶ cm/s
